# target_desc: ATP-dependent RNA helicase DDX3X (Homo sapiens, UniProt O00571)
# Sequence (O00571 2-662 limits assumed): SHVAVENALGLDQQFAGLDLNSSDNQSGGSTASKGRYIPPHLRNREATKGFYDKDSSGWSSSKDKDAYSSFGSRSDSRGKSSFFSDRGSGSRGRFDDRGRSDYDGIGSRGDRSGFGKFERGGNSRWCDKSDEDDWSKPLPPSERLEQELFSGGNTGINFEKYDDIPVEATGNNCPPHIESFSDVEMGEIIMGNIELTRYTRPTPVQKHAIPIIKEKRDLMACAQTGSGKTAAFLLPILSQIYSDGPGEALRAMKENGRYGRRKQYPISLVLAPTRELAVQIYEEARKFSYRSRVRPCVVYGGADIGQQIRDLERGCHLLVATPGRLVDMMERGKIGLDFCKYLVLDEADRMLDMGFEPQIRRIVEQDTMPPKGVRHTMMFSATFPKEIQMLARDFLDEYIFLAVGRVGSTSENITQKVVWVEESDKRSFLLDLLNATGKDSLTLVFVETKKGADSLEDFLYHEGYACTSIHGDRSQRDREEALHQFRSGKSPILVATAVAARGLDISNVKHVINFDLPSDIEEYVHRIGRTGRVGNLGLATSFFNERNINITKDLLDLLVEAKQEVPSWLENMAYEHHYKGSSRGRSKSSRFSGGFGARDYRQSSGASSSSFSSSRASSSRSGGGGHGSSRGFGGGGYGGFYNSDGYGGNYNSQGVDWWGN
# procedure_summary: Inhibition of full length His-tagged human DDX3X expressed in Escherichia coli assessed as reduction in DDX3X helicase activity using FAM-labeled double stranded RNA as substrate after 40 mins by FRET assay relative to control; note: test concentration or dose not given here
# inhibition per entry

Sample records with inhibition:
| smiles_representation | target_desc | inhibition |
| --- | --- | --- |
| CCCCc1cn(-c2ccc(S(=O)(=O)Nc3ccccc3O)cc2)nn1 | ATP-dependent RNA helicase DDX3X (Homo sapiens, UniProt O00571) | 57% |
| CCCCc1cn(-c2ccc(NC(=O)Nc3ccccc3C)cc2)nn1 | ATP-dependent RNA helicase DDX3X (Homo sapiens, UniProt O00571) | 98% |
| CCCCc1cn(-c2cccc(S(=O)(=O)Nc3ccccc3F)c2)nn1 | ATP-dependent RNA helicase DDX3X (Homo sapiens, UniProt O00571) | 24% |
| O=[N+]([O-])c1cccc(S(=O)(=O)Nc2ccccc2O)c1 | ATP-dependent RNA helicase DDX3X (Homo sapiens, UniProt O00571) | 98% |
| CCCCc1cn(-c2cccc(S(=O)(=O)Nc3ccc(OC)cc3)c2)nn1 | ATP-dependent RNA helicase DDX3X (Homo sapiens, UniProt O00571) | 80% |

Measured inhibition of CCCCc1cn(-c2cccc(S(=O)(=O)Nc3ccccc3)c2)nn1 : 31%

The molecule CCCCc1cn(-c2cccc(S(=O)(=O)Nc3ccccc3O)c2)nn1 showed inhibition equal to 83%

// recorded inhibition for O=S(=O)(Nc1ccccc1C(F)(F)F)c1cccc(-n2cc(-c3ccccc3)nn2)c1 : 41%

Data point: CCOCc1cn(-c2cccc(S(=O)(=O)Nc3cccc4cnccc34)c2)nn1 ; inhibition = 98%
